Provide the recorded %Inh for the entries that follow.
# Test system: GSK3A;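 also: KINOMEscan kinase panel screen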
# RECORDED_CONDITIONS: concentration: 1 μM, replicates: in singlicate; n = 1
Answers are plain numbers, in %.

Known results for compounds:
compound=Cc1nnc(-c2ccc(C)c(-c3ccc(C(=O)Nc4ccc(NS(C)(=O)=O)cc4)cc3)c2)o1 system_under_test=GSK3A observable=%Inh measured_number=5
compound=O=c1cc(N2CCOCC2)nc2n(Cc3cccc4ccccc34)ccn12 system_under_test=GSK3A observable=%Inh measured_number=9

Provide reported %Inh for each item, in the same order as listed.
1. Cc1cccc(-c2nc(-c3ccc(S(C)(=O)=O)cc3)sc2-c2ccncc2)c1
2. O=c1cc(N2CCOCC2)nc2n(Cc3cccc(F)c3)ccn12
3. CCCCCc1nc2c(N)ncnc2n1CCCCC
4. Cc1c2ccc(N(C)c3ccnc(Nc4cccc(S(N)(=O)=O)c4)n3)cc2nn1Cc1ccccc1.Cl.Cl
5. O=C(Nc1cccc(-c2nn3ncccc3c2-c2ccnc(Nc3cccc(C(F)(F)F)c3)n2)c1)c1c(F)cccc1F
6. COc1ccc(Nc2nccc(N3CCC(NC(=O)Nc4cc(C)ccc4C)C3)n2)cc1 (centres unmarked)
7. Cc1cccc(-c2nc(Nc3ccc4ncsc4c3)c3ccccc3n2)n1
8. O=C(Nc1n[nH]c2cc(-c3cccc(F)c3)ccc12)C1CC1

Marked response:
1. 0
2. 0
3. 0
4. 0
5. 0
6. 0
7. 3
8. 43

Provide reported %Inh for each item, in the same order as listed.
1. COc1ccc(Nc2ncc(C#N)c(Nc3ccccc3C(N)=O)n2)cc1N1CCN(C)CC1.Cl
2. COc1ccc(S(=O)(=O)NC2CCN(c3cc(C)nc(Nc4cccc(C#N)c4)n3)CC2)cc1.O=C(O)C(F)(F)F
3. O=c1cc(N2CCOCC2)nc2n(Cc3cccc(C(F)(F)F)c3)ccn12
4. NS(=O)(=O)CCc1cccc(Nc2nccc(-c3c(-c4cccc(NC(=O)c5c(F)cccc5F)c4)nn4ccccc34)n2)c1
5. Cc1ccc(C(=O)NCC(N)=O)cc1-n1c(C)cc(OCc2ccc(F)cc2F)c(Br)c1=O
6. c1ccc(-c2n[nH]cc2-c2ccnc3ccccc23)nc1
7. CCc1nc(-c2cccc(C)c2)c(-c2ccnc(NCc3ccccc3)c2)s1

Marked response:
1: 99.8; 2: 6; 3: 6; 4: 20; 5: 58; 6: 15; 7: 12
